# measured.on: recombinant human Cox-2 (r-hu Cox-2) (Homo sapiens, UniProt P35354)
# Sequence (P35354 18-604): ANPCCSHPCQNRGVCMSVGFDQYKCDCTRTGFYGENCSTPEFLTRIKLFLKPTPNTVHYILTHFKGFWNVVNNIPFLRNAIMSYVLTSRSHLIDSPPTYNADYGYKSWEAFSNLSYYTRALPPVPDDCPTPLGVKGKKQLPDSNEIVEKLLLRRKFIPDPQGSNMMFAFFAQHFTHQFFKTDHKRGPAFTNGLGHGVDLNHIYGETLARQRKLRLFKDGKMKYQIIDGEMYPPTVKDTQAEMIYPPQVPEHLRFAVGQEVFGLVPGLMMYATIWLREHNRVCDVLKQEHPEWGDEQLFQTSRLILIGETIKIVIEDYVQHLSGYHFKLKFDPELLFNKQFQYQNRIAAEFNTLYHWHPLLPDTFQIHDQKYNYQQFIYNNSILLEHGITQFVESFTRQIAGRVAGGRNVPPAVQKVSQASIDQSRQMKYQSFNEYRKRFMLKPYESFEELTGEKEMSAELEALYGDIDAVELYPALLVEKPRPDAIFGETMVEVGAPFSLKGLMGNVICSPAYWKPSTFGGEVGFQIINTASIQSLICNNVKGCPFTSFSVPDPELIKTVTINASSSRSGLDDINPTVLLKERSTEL
# assay.name: Recombinant human PGHS-2 enzyme assay (RHUCX2)
# settings: read-out: RHUCX2 IC50 (parenthetical value)
endpoint: IC50 (nM)

Known results for compounds:
Fill in IC50 for NS(=O)(=O)c1ccc(-c2cnn(Cc3ccc(F)c(F)c3F)c(=O)c2-c2ccc(F)cc2)cc1 [Example 153] tested with recombinant human Cox-2 (r-hu Cox-2) (Homo sapiens, UniProt P35354).
62

Fill in IC50 for CC(C)CCOc1c(-c2ccc(S(C)(=O)=O)cc2)cnn(-c2cccc(Cl)c2)c1=O [Example 339] tested with recombinant human Cox-2 (r-hu Cox-2) (Homo sapiens, UniProt P35354).
88

Fill in IC50 for CS(=O)(=O)c1ccc(-c2cnn(-c3ccc(F)c(F)c3)c(=O)c2-c2ccc(F)cc2)cc1 [Example 182] tested with recombinant human Cox-2 (r-hu Cox-2) (Homo sapiens, UniProt P35354).
70

Fill in IC50 for NS(=O)(=O)c1ccc(-c2cnn(CC(F)(F)F)c(=O)c2-c2ccc(Cl)c(F)c2)cc1 [Example 80] tested with recombinant human Cox-2 (r-hu Cox-2) (Homo sapiens, UniProt P35354).
64

Fill in IC50 for CS(=O)(=O)c1ccc(-c2cnn(-c3ccc(Cl)c(F)c3)c(=O)c2-c2ccc(F)cc2)cc1 [Example 190] tested with recombinant human Cox-2 (r-hu Cox-2) (Homo sapiens, UniProt P35354).
134

Fill in IC50 for CC(C)CCCOc1c(-c2ccc(S(C)(=O)=O)cc2)cnn(-c2cccc(Cl)c2)c1=O [Example 413] tested with recombinant human Cox-2 (r-hu Cox-2) (Homo sapiens, UniProt P35354).
110

Fill in IC50 for CS(=O)(=O)c1ccc(-c2cnn(-c3cccc(Cl)c3)c(=O)c2OCCC2CC2)cc1 [Example 419] tested with recombinant human Cox-2 (r-hu Cox-2) (Homo sapiens, UniProt P35354).
100

Fill in IC50 for CC(C)COc1c(-c2ccc(S(C)(=O)=O)cc2)cnn(-c2ccc(F)cc2)c1=O [Example 376] tested with recombinant human Cox-2 (r-hu Cox-2) (Homo sapiens, UniProt P35354).
27

Fill in IC50 for NS(=O)(=O)c1ccc(-c2cnn(-c3ccc(F)cc3)c(=O)c2Cc2cccc(F)c2)cc1 [Example 253] tested with recombinant human Cox-2 (r-hu Cox-2) (Homo sapiens, UniProt P35354).
272

Fill in IC50 for CS(=O)(=O)c1ccc(-c2cnn(-c3ccc(F)cc3)c(=O)c2Oc2ccc(F)cc2)cc1 [Example 108] tested with recombinant human Cox-2 (r-hu Cox-2) (Homo sapiens, UniProt P35354).
279

[a] C/C(=C\Cn1ncc(-c2ccc(S(N)(=O)=O)cc2)c(-c2ccc(F)cc2)c1=O)C(F)(F)F [Example 154]
[b] CS(=O)(=O)c1ccc(-c2cnn(-c3cccc(Br)c3)c(=O)c2-c2ccc(F)cc2)cc1 [Example 166]
[c] CS(=O)(=O)c1ccc(-c2cnn(-c3ccc(F)c(F)c3)c(=O)c2-c2ccc(Cl)cc2)cc1 [Example 106]
Highest IC50 first, then in falling order down to the smallest. In your reply, arrange the labels in the requested order.
b, c, a

* * *

// reported melting point per item

Give the reported value of melting point for this record: "CS(=O)(=O)c1ccc(-c2cnn(-c3ccc(F)cc3)c(=O)c2N2CCCCC2)cc1"
80 to 100 °C

Give the reported value of melting point for this record: "CC(C)=CCn1ncc(-c2ccc(S(C)(=O)=O)cc2)c(-c2ccc(F)cc2)c1=O"
169 to 172 °C

Give the reported value of melting point for this record: "CC(C)CCOc1c(-c2ccc(S(C)(=O)=O)cc2)cnn(CC(F)(F)F)c1=O"
111 to 113 °C

Others:
Give the reported value of melting point for this record: "CC(C)(O)CCOc1c(-c2ccc(S(N)(=O)=O)cc2)cnn(-c2ccc(F)c(Cl)c2)c1=O"
59 to 62 °C

* * *

endpoint: melting point

Give the reported value of melting point for this record: "NS(=O)(=O)c1ccc(-c2cnn(CC(F)(F)F)c(=O)c2-c2ccc(Cl)c(F)c2)cc1"
214 to 215 °C

Give the reported value of melting point for this record: "Cc1ccc(-c2c(-c3ccc(S(C)(=O)=O)cc3)cnn(-c3cccc(Cl)c3)c2=O)cc1"
222 to 224 °C

Give the reported value of melting point for this record: "CC(C)CSCc1c(-c2ccc(S(C)(=O)=O)cc2)cnn(-c2ccc(F)cc2)c1=O"
45 to 60 °C

Give the reported value of melting point for this record: "CC(C)(C)SCc1c(-c2ccc(S(C)(=O)=O)cc2)cnn(-c2ccc(F)cc2)c1=O"
50 to 70 °C

Give the reported value of melting point for this record: "CS(=O)(=O)c1ccc(-c2cnn(CC(F)(F)F)c(=O)c2OCc2ccco2)cc1"
113 to 115 °C

Others:
Give the reported value of melting point for this record: "Cc1cc(C)cc(-n2ncc(-c3ccc(S(C)(=O)=O)cc3)c(-c3ccc(F)cc3)c2=O)c1"
130 to 134 °C

Give the reported value of melting point for this record: CC(c1cccc(F)c1)n1ncc(-c2ccc(S(N)(=O)=O)cc2)c(-c2ccc(F)cc2)c1=O (stereo not drawn)
192 to 194 °C

Give the reported value of melting point for this record: "C=C(C)CCOc1c(-c2ccc(S(C)(=O)=O)cc2)cnn(-c2cccc(Cl)c2)c1=O"
110 to 112 °C

* * *

# measured.on: recombinant human Cox-1 (r-hu Cox1) (Homo sapiens, UniProt P23219)
# Construct: made in house; host or cells: baculovirus/Sf9 insect cells (microsomes)
# Sequence (P23219 24-599): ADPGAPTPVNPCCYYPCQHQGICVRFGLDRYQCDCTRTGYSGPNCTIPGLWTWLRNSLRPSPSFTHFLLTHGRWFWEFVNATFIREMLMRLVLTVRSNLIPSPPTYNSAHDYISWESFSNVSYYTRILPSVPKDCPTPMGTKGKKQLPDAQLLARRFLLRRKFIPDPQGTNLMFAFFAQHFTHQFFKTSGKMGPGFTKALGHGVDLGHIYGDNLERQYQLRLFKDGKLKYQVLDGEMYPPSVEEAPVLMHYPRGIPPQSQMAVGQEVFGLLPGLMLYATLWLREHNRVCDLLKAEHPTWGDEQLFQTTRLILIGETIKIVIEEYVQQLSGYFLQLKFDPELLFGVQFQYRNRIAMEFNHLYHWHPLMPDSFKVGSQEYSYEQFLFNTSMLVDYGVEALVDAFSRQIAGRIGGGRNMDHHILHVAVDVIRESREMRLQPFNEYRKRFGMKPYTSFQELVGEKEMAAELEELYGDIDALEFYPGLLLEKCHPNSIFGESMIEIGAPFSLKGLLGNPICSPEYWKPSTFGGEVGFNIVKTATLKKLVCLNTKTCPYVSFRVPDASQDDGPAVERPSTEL
# assay.name: Recombinant human PGHS-1 enzyme assay (RHUCX1)
# Format: biochemical
# settings: 1 μM; read-out: RHUCX1 % Inh. at Dose
endpoint: inhibition at 1 µM (%)

Give the reported value of inhibition at 1 µM for this record: CS(=O)(=O)c1ccc(-c2cnn(-c3cccc(Cl)c3)c(=O)c2Oc2cccc(F)c2)cc1 [Example 411]
81

Give the reported value of inhibition at 1 µM for this record: CC(c1ccc(F)c(F)c1F)n1ncc(-c2ccc(S(N)(=O)=O)cc2)c(-c2ccc(F)cc2)c1=O (stereo not shown) [Example 146]
53

[P] C=C(F)C(F)(F)n1ncc(-c2ccc(S(N)(=O)=O)cc2)c(-c2ccc(F)cc2)c1=O [Example 142]
[Q] CS(=O)(=O)c1ccc(-c2cnn(C3C4CC5CC(C4)CC3C5)c(=O)c2-c2ccc(F)cc2)cc1 (stereo not shown) [Example 132]
Which value of inhibition at 1 µM is greater, the one for P or the one for Q ? Refer to your chosen item by its label in the answer.
Q
(Q: 93%, P: 53%)

* * *

# measured.on: human amnionic whole cell cyclooxygenase-2 (WISH cells) (Homo sapiens)
# Construct: endogenous in cells
# assay.name: IL-1β induced PGE2 production in WISH cells
# settings: read-out: Wish IC50 (parenthetical value)
endpoint: IC50 (nM)

Known results for compounds:
Fill in IC50 for "CC(C)(C)COc1c(-c2ccc(S(N)(=O)=O)cc2)cnn(CC(F)(F)F)c1=O" tested with human amnionic whole cell cyclooxygenase-2 (WISH cells) (Homo sapiens).
20

Fill in IC50 for "CC(C)(O)CCOc1c(-c2ccc(S(C)(=O)=O)cc2)cnn(-c2ccc(F)cc2)c1=O" tested with human amnionic whole cell cyclooxygenase-2 (WISH cells) (Homo sapiens).
150

Fill in IC50 for CC(c1ccc(F)c(F)c1)n1ncc(-c2ccc(S(N)(=O)=O)cc2)c(-c2ccc(F)cc2)c1=O (stereo not shown) tested with human amnionic whole cell cyclooxygenase-2 (WISH cells) (Homo sapiens).
42

Fill in IC50 for "CS(=O)(=O)c1ccc(-c2cnn(-c3cccc(Cl)c3)c(=O)c2OCC2CC2)cc1" tested with human amnionic whole cell cyclooxygenase-2 (WISH cells) (Homo sapiens).
250

Fill in IC50 for "CC(C)COc1c(-c2ccc(S(N)(=O)=O)cc2)cnn(-c2ccc(F)c(F)c2)c1=O" tested with human amnionic whole cell cyclooxygenase-2 (WISH cells) (Homo sapiens).
18

Fill in IC50 for CC(/C=C/Cl)n1ncc(-c2ccc(S(N)(=O)=O)cc2)c(-c2ccc(F)cc2)c1=O (stereo not shown) tested with human amnionic whole cell cyclooxygenase-2 (WISH cells) (Homo sapiens).
10

[a] CS(=O)(=O)c1ccc(-c2cnn(CC(F)(F)F)c(=O)c2SC2CCCCC2)cc1
[b] NS(=O)(=O)c1ccc(-c2cnn(-c3ccc(F)c(F)c3)c(=O)c2-c2ccc(F)cc2)cc1
Lower value for measured IC50? Options: a , b Refer to your chosen item by its label in the answer.
b
(b: 26 nM, a: 160 nM)
